The origin of these recorded values is the supplement of paper PMC3545927.

Each entry below carries its recorded furin cleavage Z-score.
target: furin, P09958; experiment: furin cleavage Z-score vs untreated control; higher = more cleavage, active = 3.5 or more, inactive = 1 or less, 8 variable residues between constant flanks; conditions: 30 min;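 also: purified furin at 1:10 enzyme:substrate in 50 mM HEPES pH 7.5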
Sequence (P09958 whole entry): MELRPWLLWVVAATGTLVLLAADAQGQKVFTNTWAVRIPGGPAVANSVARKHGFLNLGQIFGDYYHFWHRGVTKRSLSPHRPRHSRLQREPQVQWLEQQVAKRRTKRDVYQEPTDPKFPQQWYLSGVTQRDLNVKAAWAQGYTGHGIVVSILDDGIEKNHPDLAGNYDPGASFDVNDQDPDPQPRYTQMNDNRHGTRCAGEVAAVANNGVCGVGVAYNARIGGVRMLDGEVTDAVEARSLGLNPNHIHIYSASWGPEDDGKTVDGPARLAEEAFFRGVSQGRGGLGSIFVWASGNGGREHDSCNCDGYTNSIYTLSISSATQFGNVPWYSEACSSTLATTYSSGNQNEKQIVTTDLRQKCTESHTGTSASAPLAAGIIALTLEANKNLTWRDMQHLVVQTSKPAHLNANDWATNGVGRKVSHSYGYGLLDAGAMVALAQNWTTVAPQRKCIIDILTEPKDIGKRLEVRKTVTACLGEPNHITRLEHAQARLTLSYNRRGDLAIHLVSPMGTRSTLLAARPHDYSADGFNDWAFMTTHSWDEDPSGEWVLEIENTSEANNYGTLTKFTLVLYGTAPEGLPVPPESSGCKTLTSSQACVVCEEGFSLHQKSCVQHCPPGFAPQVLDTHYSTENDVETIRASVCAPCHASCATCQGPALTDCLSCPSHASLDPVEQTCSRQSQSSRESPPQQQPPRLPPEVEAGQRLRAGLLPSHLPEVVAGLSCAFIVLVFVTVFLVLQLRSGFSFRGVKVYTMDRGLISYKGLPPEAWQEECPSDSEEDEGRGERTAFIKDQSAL
The other results are listed elsewhere or left out. The hit rate among all sequences tested is not known here.
// print number alone

CAPKARRKRYAGNASASA [FS-619] ... 11.2
CAQPPRPFRSAGNASASA [FS-704] ... -0.0165
CAVRARLLARAGNASASA [HC1624] ... -0.318

stdin: Identify measured furin cleavage Z-score corresponding to CAEQTTPCSGAGNASASA [HC1982]
stdout: 0.257

stdin: Look up and state reported furin cleavage Z-score for CARQRRTVGQAGNASASA [FS-2367]
stdout: 7.82

stdin: Give the reported furin cleavage Z-score for this sequence. CAEGPCHRPSAGNASASA [HC2336]
stdout: 0.259
